Target: Human CD137 ECD (human)
Sequence (chain, as listed by the source limits assumed): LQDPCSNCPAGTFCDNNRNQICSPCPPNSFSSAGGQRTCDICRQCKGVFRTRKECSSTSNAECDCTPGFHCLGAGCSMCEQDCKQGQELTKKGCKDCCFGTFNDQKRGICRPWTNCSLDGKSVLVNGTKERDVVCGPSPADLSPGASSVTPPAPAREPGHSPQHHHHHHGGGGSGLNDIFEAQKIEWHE
Experiment: single mutant vs template dBBDu183H
fold change of affinity values for the binders below.
Write the number in fold without appending the unit.

In plain terms, H183/L072 VH M34D (antibody, name in Kabat numbering, V domains shown) VH: QVQLVESGGGLVQPGRSLRLSCAASGFTFSNAWDHWVRQAPGKGLEWVAQIKDKGNAYAAYYAPSVKGRFTISRDDSKNSIYLQMNSLKTEDTAVYYCHYVHYASASTVLPAFGVDAWGQGTTVTVSS VL: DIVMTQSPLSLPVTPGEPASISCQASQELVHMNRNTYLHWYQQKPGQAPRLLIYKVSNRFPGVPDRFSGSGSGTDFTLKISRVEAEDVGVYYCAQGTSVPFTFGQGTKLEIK has a documented fold change of affinity of 0

Quick note, fold change of affinity for H183/L072 VH H35K (antibody, name in Kabat numbering, V domains shown) VH: QVQLVESGGGLVQPGRSLRLSCAASGFTFSNAWMKWVRQAPGKGLEWVAQIKDKGNAYAAYYAPSVKGRFTISRDDSKNSIYLQMNSLKTEDTAVYYCHYVHYASASTVLPAFGVDAWGQGTTVTVSS VL: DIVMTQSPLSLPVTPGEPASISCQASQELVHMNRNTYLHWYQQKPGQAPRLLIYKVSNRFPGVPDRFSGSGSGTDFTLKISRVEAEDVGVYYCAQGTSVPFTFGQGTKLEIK landed at 0
